# System: Streptomyces scabiei
# Procedure Text: Antibacterial activity against Streptomyces scabiei CGMCC4.7610246 by microdilution assay
# Assay type: functional

Structure Smiles String	Assayed System	Sign	MIC, µg/mL
CC1(C)[C@@H](O)[C@@H](O)[C@H](O)[C@]2(C)[C@H]3C(=O)C=C4[C@@H]5C[C@@](C)(C(=O)OCc6ccc([N+](=O)[O-])cc6)CC[C@]5(C)CC[C@@]4(C)[C@]3(C)CC[C@@H]12	Streptomyces scabiei	>	50
CCCCOC(=O)[C@@]1(C)CC[C@]2(C)CC[C@]3(C)C(=CC(=O)[C@@H]4[C@@]5(C)[C@@H](O)[C@H](O)[C@H](O)C(C)(C)[C@@H]5CC[C@]43C)[C@@H]2C1	Streptomyces scabiei	=	4.4
CC1(C)[C@@H](O)[C@@H](O)[C@H](O)[C@]2(C)[C@H]3CC=C4[C@@H]5C[C@@](C)(C(=O)OCc6ccc([N+](=O)[O-])cc6)CC[C@]5(C)CC[C@@]4(C)[C@]3(C)CC[C@@H]12	Streptomyces scabiei	>	50
CCCOC(=O)[C@@]1(C)CC[C@]2(C)CC[C@]3(C)C(=CC(=O)[C@@H]4[C@@]5(C)[C@@H](O)[C@H](O)[C@H](O)C(C)(C)[C@@H]5CC[C@]43C)[C@@H]2C1	Streptomyces scabiei	=	4.3
CCCCCOC(=O)[C@@]1(C)CC[C@]2(C)CC[C@]3(C)C(=CC(=O)[C@@H]4[C@@]5(C)[C@@H](O)[C@H](O)[C@H](O)C(C)(C)[C@@H]5CC[C@]43C)[C@@H]2C1	Streptomyces scabiei	>	50

---

Quick list: MIC per entry.
# Tested on: Streptomyces scabiei
# Procedure Text: Antibacterial activity against Streptomyces scabiei CGMCC4.7610246 by microdilution assay
# Type: functional

Structure Smiles String	Assayed System	MIC
CCCCCOC(=O)[C@@]1(C)CC[C@]2(C)CC[C@]3(C)C(=CC[C@@H]4[C@@]5(C)[C@@H](O)[C@H](O)[C@H](O)C(C)(C)[C@@H]5CC[C@]43C)[C@@H]2C1	Streptomyces scabiei	> 50 µg/mL
CC1(C)[C@@H](O)[C@@H](O)[C@H](O)[C@]2(C)[C@H]3C(=O)C=C4[C@@H]5C[C@@](C)(C(=O)OCc6ccccc6)CC[C@]5(C)CC[C@@]4(C)[C@]3(C)CC[C@@H]12	Streptomyces scabiei	> 37.8 µg/mL
CC1(C)[C@@H](O)[C@@H](O)[C@H](O)[C@]2(C)[C@H]3CC=C4[C@@H]5C[C@@](C)(C(=O)OCc6ccccc6[N+](=O)[O-])CC[C@]5(C)CC[C@@]4(C)[C@]3(C)CC[C@@H]12	Streptomyces scabiei	> 50 µg/mL
CC1(C)[C@@H](O)[C@@H](O)[C@H](O)[C@]2(C)[C@H]3CC=C4[C@@H]5C[C@@](C)(C(=O)OCc6ccc(Cl)cc6)CC[C@]5(C)CC[C@@]4(C)[C@]3(C)CC[C@@H]12	Streptomyces scabiei	> 50 µg/mL
CC1(C)[C@@H](O)[C@@H]2O[C@@H]2[C@]2(C)[C@H]3CC=C4[C@@H]5C[C@@](C)(C(=O)OCc6ccccc6)CC[C@]5(C)CC[C@@]4(C)[C@]3(C)CC[C@@H]12	Streptomyces scabiei	> 50 µg/mL
CC1(C)[C@@H](O)CC[C@]2(C)[C@H]3C(=O)C=C4[C@@H]5C[C@@](C)(C(=O)O)CC[C@]5(C)CC[C@@]4(C)[C@]3(C)CC[C@@H]12	Streptomyces scabiei	> 50 µg/mL
CC1(C)[C@@H](O)[C@@H](O)[C@H](O)[C@]2(C)[C@H]3C(=O)C=C4[C@@H]5C[C@@](C)(C(=O)OCc6ccc(Cl)cc6)CC[C@]5(C)CC[C@@]4(C)[C@]3(C)CC[C@@H]12	Streptomyces scabiei	> 50 µg/mL
CCCCCCCCCCCCCCCOC(=O)[C@@]1(C)CC[C@]2(C)CC[C@]3(C)C(=CC(=O)[C@@H]4[C@@]5(C)[C@@H](O)[C@H](O)[C@H](O)C(C)(C)[C@@H]5CC[C@]43C)[C@@H]2C1	Streptomyces scabiei	> 50 µg/mL
CC1(C)[C@@H](O)CC[C@]2(C)[C@H]3CC=C4[C@@H]5C[C@@](C)(C(=O)O)CC[C@]5(C)CC[C@@]4(C)[C@]3(C)CC[C@@H]12	Streptomyces scabiei	> 50 µg/mL
CCCCCCCCCCCCCCCOC(=O)[C@@]1(C)CC[C@]2(C)CC[C@]3(C)C(=CC[C@@H]4[C@@]5(C)[C@@H](O)[C@H](O)[C@H](O)C(C)(C)[C@@H]5CC[C@]43C)[C@@H]2C1	Streptomyces scabiei	> 50 µg/mL
CC(C)OC(=O)[C@@]1(C)CC[C@]2(C)CC[C@]3(C)C(=CC[C@@H]4[C@@]5(C)[C@@H](O)[C@H](O)[C@H](O)C(C)(C)[C@@H]5CC[C@]43C)[C@@H]2C1	Streptomyces scabiei	4.2 µg/mL
CC1(C)[C@@H](O)[C@@H](O)[C@H](O)[C@]2(C)[C@H]3CC=C4[C@@H]5C[C@@](C)(C(=O)OCc6ccccc6)CC[C@]5(C)CC[C@@]4(C)[C@]3(C)CC[C@@H]12	Streptomyces scabiei	> 36 µg/mL
CC1(C)[C@@H](O)[C@@H](O)[C@H](O)[C@]2(C)[C@H]3C(=O)C=C4[C@@H]5C[C@@](C)(C(=O)OCc6ccccc6Cl)CC[C@]5(C)CC[C@@]4(C)[C@]3(C)CC[C@@H]12	Streptomyces scabiei	> 50 µg/mL
CC1(C)[C@H](O)[C@@H](O)[C@H](O)[C@]2(C)[C@H]3C(=O)C=C4[C@@H]5C[C@@](C)(C(=O)O)CC[C@]5(C)CC[C@@]4(C)[C@]3(C)CC[C@@H]12	Streptomyces scabiei	> 50 µg/mL
CC1(C)[C@@H](O)[C@@H](O)[C@H](O)[C@]2(C)[C@H]3CC=C4[C@@H]5C[C@@](C)(C(=O)O)CC[C@]5(C)CC[C@@]4(C)[C@]3(C)CC[C@@H]12	Streptomyces scabiei	31.2 µg/mL
CC1(C)C(=O)CC[C@]2(C)[C@H]3CC=C4[C@@H]5C[C@@](C)(C(=O)OCc6ccccc6)CC[C@]5(C)CC[C@@]4(C)[C@]3(C)CC[C@@H]12	Streptomyces scabiei	> 50 µg/mL
CC1(C)C(=O)CC[C@]2(C)[C@H]3C(=O)C=C4[C@@H]5C[C@@](C)(C(=O)OCc6ccccc6)CC[C@]5(C)CC[C@@]4(C)[C@]3(C)CC[C@@H]12	Streptomyces scabiei	> 50 µg/mL
CC1(C)[C@H](O)[C@@H](O)[C@H](O)[C@]2(C)[C@H]3C(=O)C=C4[C@@H]5C[C@@](C)(C(=O)OCc6ccccc6)CC[C@]5(C)CC[C@@]4(C)[C@]3(C)CC[C@@H]12	Streptomyces scabiei	> 37.8 µg/mL
CCOC(=O)[C@@]1(C)CC[C@]2(C)CC[C@]3(C)C(=CC(=O)[C@@H]4[C@@]5(C)[C@@H](O)[C@H](O)[C@H](O)C(C)(C)[C@@H]5CC[C@]43C)[C@@H]2C1	Streptomyces scabiei	2.1 µg/mL
CCCOC(=O)[C@@]1(C)CC[C@]2(C)CC[C@]3(C)C(=CC[C@@H]4[C@@]5(C)[C@@H](O)[C@H](O)[C@H](O)C(C)(C)[C@@H]5CC[C@]43C)[C@@H]2C1	Streptomyces scabiei	> 33.9 µg/mL

---

# System: Streptomyces scabiei
# Procedure Text: Antibacterial activity against Streptomyces scabiei CGMCC4.7610246 by microdilution assay
# Format: functional

Structure Smiles String	MIC
CC1(C)C(=O)C=C[C@]2(C)[C@H]3C(=O)C=C4[C@@H]5C[C@@](C)(C(=O)OCc6ccccc6)CC[C@]5(C)CC[C@@]4(C)[C@]3(C)CC[C@@H]12	> 50 µg/mL
CC1(C)C(=O)C=C[C@]2(C)[C@H]3CC=C4[C@@H]5C[C@@](C)(C(=O)OCc6ccccc6)CC[C@]5(C)CC[C@@]4(C)[C@]3(C)CC[C@@H]12	34.6 µg/mL
COC(=O)[C@@]1(C)CC[C@]2(C)CC[C@]3(C)C(=CC[C@@H]4[C@@]5(C)[C@@H](O)[C@H](O)[C@H](O)C(C)(C)[C@@H]5CC[C@]43C)[C@@H]2C1	1 µg/mL
CC1(C)[C@@H](O)[C@@H](O)[C@H](O)[C@]2(C)[C@H]3CC=C4[C@@H]5C[C@@](C)(C(=O)OCc6ccccc6Cl)CC[C@]5(C)CC[C@@]4(C)[C@]3(C)CC[C@@H]12	> 50 µg/mL
CC1(C)[C@@H](O)[C@@H]2O[C@@H]2[C@]2(C)[C@H]3C(=O)C=C4[C@@H]5C[C@@](C)(C(=O)OCc6ccccc6)CC[C@]5(C)CC[C@@]4(C)[C@]3(C)CC[C@@H]12	> 50 µg/mL
CC1(C)[C@@H](O)[C@@H](O)[C@H](O)[C@]2(C)[C@H]3C(=O)C=C4[C@@H]5C[C@@](C)(C(=O)OCc6ccccc6[N+](=O)[O-])CC[C@]5(C)CC[C@@]4(C)[C@]3(C)CC[C@@H]12	> 50 µg/mL
CC1(C)C(=O)[C@@H]2O[C@@H]2[C@]2(C)[C@H]3CC=C4[C@@H]5C[C@@](C)(C(=O)OCc6ccccc6)CC[C@]5(C)CC[C@@]4(C)[C@]3(C)CC[C@@H]12	> 50 µg/mL
CCOC(=O)[C@@]1(C)CC[C@]2(C)CC[C@]3(C)C(=CC[C@@H]4[C@@]5(C)[C@@H](O)[C@H](O)[C@H](O)C(C)(C)[C@@H]5CC[C@]43C)[C@@H]2C1	4.1 µg/mL
CC1(C)[C@@H](O)CC[C@]2(C)[C@H]3C(=O)C=C4[C@@H]5C[C@@](C)(C(=O)OCc6ccccc6)CC[C@]5(C)CC[C@@]4(C)[C@]3(C)CC[C@@H]12	> 50 µg/mL
COC(=O)[C@@]1(C)CC[C@]2(C)CC[C@]3(C)C(=CC(=O)[C@@H]4[C@@]5(C)[C@@H](O)[C@H](O)[C@H](O)C(C)(C)[C@@H]5CC[C@]43C)[C@@H]2C1	> 50 µg/mL

Source: ChEMBL document CHEMBL4477166
